Entries and their measured percent_rel_axenic follow.
System: filter-sterile supernatant of Rhodanobacter R179 (secreted peptidase(s))
Assay: Peptide quantification by mass spectrometry after incubation in cell-free supernatant of Rhodanobacter R179
Assay type: in vitro ADME
Conditions: R179 dssAB mutant supernatant, XVM2 medium, incubation 1h, peptide relative to axenic, replicate 1
Where no end group is shown, it is not given here.
Note: unit % is implicit; provide only the numeric part.

QRLSTGSRINSAKDDAAGLQIA [flg22] ... 0

Prompt line: Which value of percent_rel_axenic has been reported for ATKVKAKQRGKEKVSSGRPGQHN [AtPep1] in the records?
Response line: 0.0095

Prompt line: What value of percent_rel_axenic has been reported for the following substance? Ac-SKEKFERTKPHVNVGTIG [elf18]
Response line: 0

Prompt line: Reported percent_rel_axenic, substance D-Y(SO3H)-GDPSANPKHDPGV-Hyp-Hyp-S [PSY1, root-growth-promoting sulfated PSY1 peptide] : ____
Response line: 16.8242
